Below, each of the molecules is paired with its reported cell viability value.
Tested on: NCC-PMP1-C1
Experiment: cell viability relative to DMSO control; higher = less growth inhibition
Details: 10 µM; 72 h
Where a name gives a salt, the structure may show the parent alone.

Some molecules with recorded cell viability:
Prompt line: Given the molecule CC(C)c1nc(CN(C)C(=O)N[C@@H](CCN2CCOCC2)C(=O)N[C@H](CC[C@H](Cc2ccccc2)NC(=O)OCc2cncs2)Cc2ccccc2)cs1 [Cobicistat (GS-9350)] , write its reported cell viability.
Response line: 83.8%

Prompt line: Given the molecule Cc1nc(Nc2ncc(C(=O)Nc3c(C)cccc3Cl)s2)cc(N2CCN(CCO)CC2)n1 [Dasatinib] , write its reported cell viability.
Response line: 26.3%

Prompt line: Given the molecule CCN(CC)CCOc1ccc(C(=C(Cl)c2ccccc2)c2ccccc2)cc1 [Clomifene citrate] , write its reported cell viability.
Response line: -6.65%

Prompt line: Given the molecule O=C(CCCCCCC(=O)Nc1ccccc1)NO [Vorinostat (SAHA, MK0683)] , write its reported cell viability.
Response line: 27.7%

***
Prompt line: Given the molecule CCc1ccc(CCOc2ccc(CC3SC(=O)NC3=O)cc2)nc1 (centres undefined) [Pioglitazone] , write its reported cell viability.
Response line: 92.8%

Prompt line: Given the molecule CC1=C(/C=C/C(C)=C/C=C/C(C)=C/C(=O)O)C(C)(C)CCC1 [Tretinoin] , write its reported cell viability.
Response line: 129%

Prompt line: Given the molecule CCC[C@@H]1C[C@@H](C(=O)N[C@@H]([C@H]2O[C@H](SC)[C@H](O)[C@@H](O)[C@H]2O)[C@@H](C)O)N(C)C1 [Lincomycin HCl] , write its reported cell viability.
Response line: 74.4%

Prompt line: Given the molecule `C/C(=C\c1csc(C)n1)[C@@H]1C[C@@H]2O[C@]2(C)CCC[C@H](C)[C@H](O)[C@@H](C)C(=O)C(C)(C)[C@@H](O)CC(=O)N1` , write its reported cell viability.
Response line: 73.7%

Prompt line: Given the molecule CN(C)C/C=C/C(=O)Nc1cc2c(Nc3ccc(F)c(Cl)c3)ncnc2cc1O[C@H]1CCOC1 [Afatinib (BIBW2992) Dimaleate] , write its reported cell viability.
Response line: 29.3%

---

Test system: NCC-PMP1-C1
Assay: cell viability relative to DMSO control; higher = less growth inhibition
Settings: 10 µM; 72 h
Below, each of the molecules is paired with its reported cell viability value.
Write down the numeric answer in % and omit the unit.

Some molecules with recorded cell viability:
Prompt line: Given the molecule CC[C@H]1OC(=O)[C@H](C)[C@@H](O[C@H]2C[C@@](C)(OC)[C@@H](O)[C@H](C)O2)[C@H](C)[C@@H](O[C@@H]2O[C@H](C)C[C@H](N(C)C)[C@H]2O)[C@](C)(O)C[C@@H](C)CN(C)[C@H](C)[C@@H](O)[C@]1(C)O [Azithromycin] , write its reported cell viability.
Response line: 123

Prompt line: Given the molecule CC(=O)OCC(CCn1cnc2cnc(N)nc21)COC(C)=O [Famciclovir] , write its reported cell viability.
Response line: 94.3

Now consider the entry below.
Prompt line: Given the molecule Nc1nc2[nH]cnc2c(=S)[nH]1 [Thioguanine] , write its reported cell viability.
Response line: 88.9

---

Tested on: NCC-PMP1-C1
Assay: cell viability relative to DMSO control; higher = less growth inhibition
Conditions: 10 µM; 72 h
parameter: cell viability (%)
Write down the numeric answer in % and omit the unit.

Some molecules with recorded cell viability:
Prompt line: Given the molecule `CN(C)/N=N/c1[nH]cnc1C(N)=O` , write its reported cell viability.
Response line: 112

Prompt line: Given the molecule `O=P(O)(O)C(O)(Cn1ccnc1)P(=O)(O)O` , write its reported cell viability.
Response line: 109

Prompt line: Given the molecule `Nc1nc2n[nH]nc2c(=O)[nH]1` , write its reported cell viability.
Response line: 55.8

Prompt line: Given the molecule `C=CC(=O)N1CCC[C@@H](n2nc(-c3ccc(Oc4ccccc4)cc3)c3c(N)ncnc32)C1` , write its reported cell viability.
Response line: 59

Prompt line: Given the molecule `COc1cc2c(cc1O)CCN[C@]21CS[C@@H]2c3c(OC(C)=O)c(C)c4c(c3[C@H](COC1=O)N1[C@@H]2[C@H]2c3c(cc(C)c(OC)c3O)C[C@@H]([C@@H]1O)N2C)OCO4` , write its reported cell viability.
Response line: -0.842

***
Prompt line: Given the molecule `O=NN(CCCl)C(=O)NC1CCCCC1` , write its reported cell viability.
Response line: 105

Prompt line: Given the molecule `CC(=O)O[C@H]1C(=O)[C@@]2(C)[C@H]([C@H](OC(=O)c3ccccc3)[C@]3(O)C[C@H](OC(=O)[C@H](O)[C@@H](NC(=O)c4ccccc4)c4ccccc4)C(C)=C1C3(C)C)[C@]1(OC(C)=O)CO[C@@H]1C[C@@H]2O` , write its reported cell viability.
Response line: 81.6

Prompt line: Given the molecule `C[C@@]12C[C@@]3(O)O[C@@H](O1)[C@]1(COC(=O)c4ccccc4)[C@H]3C[C@@]12O[C@@H]1O[C@H](CO)[C@@H](O)[C@H](O)[C@H]1O` , write its reported cell viability.
Response line: 78.6

Prompt line: Given the molecule `N#Cc1ccc(C(c2ccc(C#N)cc2)n2cncn2)cc1` , write its reported cell viability.
Response line: 129

Prompt line: Given the molecule `C=C1C[C@@H]2CC[C@@]34C[C@H]5O[C@H]6[C@@H](O3)[C@H]3O[C@H](CC[C@@H]3O[C@H]6[C@H]5O4)CC(=O)C[C@@H]3[C@@H](OC)[C@@H](C[C@H](O)CN)O[C@H]3C[C@H]3O[C@@H](CC[C@@H]1O2)C[C@@H](C)C3=C` , write its reported cell viability.
Response line: 54

Prompt line: Given the molecule `CCN(CC)CCNC(=O)c1c(C)[nH]c(/C=C2\C(=O)Nc3ccc(F)cc32)c1C` , write its reported cell viability.
Response line: 35.5

Prompt line: Given the molecule `CC/C(=C(/CC)c1ccc(O)cc1)c1ccc(O)cc1` , write its reported cell viability.
Response line: 121

Prompt line: Given the molecule `CC#CCn1c(N2CCC[C@@H](N)C2)nc2c1c(=O)n(Cc1nc(C)c3ccccc3n1)c(=O)n2C` , write its reported cell viability.
Response line: 94.5

Prompt line: Given the molecule `Nc1nc(Cl)nc2c1ncn2[C@H]1C[C@H](O)[C@@H](CO)O1` , write its reported cell viability.
Response line: 97.8

---

Test system: NCC-PMP1-C1
Assay: cell viability relative to DMSO control; higher = less growth inhibition
Details: 10 µM; 72 h
Label criterion met when cell viability is strictly below 60%; otherwise label criterion not met.

For orientation, consider the following solved cases.
Prompt line: Is it true that cell viability reported for `Cc1ccc(F)c(NC(=O)Nc2ccc(-c3cccc4[nH]nc(N)c34)cc2)c1` is less than 60%?
Response line: criterion met

Prompt line: Is it true that cell viability reported for C#CCC(Cc1cnc2nc(N)nc(N)c2n1)c1ccc(C(=O)N[C@@H](CCC(=O)O)C(=O)O)cc1 (stereo partly drawn) [Pralatrexate] is less than 60%?
Response line: criterion not met

Prompt line: Is it true that cell viability reported for `CNC(=O)c1ccc(-c2cnc3ncc(Cc4ccc5ncccc5c4)n3n2)cc1F` is less than 60%?
Response line: criterion not met

Prompt line: Is it true that cell viability reported for `CS(=O)(=O)CCNCc1ccc(-c2ccc3ncnc(Nc4ccc(OCc5cccc(F)c5)c(Cl)c4)c3c2)o1` is less than 60%?
Response line: criterion met

Prompt line: Is it true that cell viability reported for `CCN1CCN(c2ccc(Nc3cc(N(C)C(=O)Nc4c(Cl)c(OC)cc(OC)c4Cl)ncn3)cc2)CC1` is less than 60%?
Response line: criterion met

***
Prompt line: Is it true that cell viability reported for `Nc1nc(Cl)nc2c1ncn2[C@@H]1O[C@H](CO)[C@@H](O)[C@@H]1F` is less than 60%?
Response line: criterion not met

Prompt line: Is it true that cell viability reported for Cc1ccc(NC(=O)c2ccc(CN3CCN(C)CC3)cc2)cc1Nc1nccc(-c2cccnc2)n1 [Imatinib (STI571)] is less than 60%?
Response line: criterion not met

---

Tested on: NCC-PMP1-C1
Test: cell viability relative to DMSO control; higher = less growth inhibition
Settings: 10 µM; 72 h
Where a name gives a salt, the structure may show the parent alone.
Below, each of the compounds is paired with its reported cell viability value.
Write down the numeric answer in % and omit the unit.

Some compounds with recorded cell viability:
Prompt line: Given the compound `O=c1[nH]cc(F)c(=O)[nH]1` , write its reported cell viability.
Response line: 86.7

Prompt line: Given the compound `Nc1ncn([C@H]2C[C@H](O)[C@@H](CO)O2)c(=O)n1` , write its reported cell viability.
Response line: 95.2

Prompt line: Given the compound O=C(O)CCCN1CCC(O[C@@H](c2ccc(Cl)cc2)c2ccccn2)CC1 [Bepotastine Besilate] , write its reported cell viability.
Response line: 2.73

Prompt line: Given the compound `Cc1cc(Nc2ncc(Cl)c(Nc3ccccc3S(=O)(=O)C(C)C)n2)c(OC(C)C)cc1C1CCNCC1` , write its reported cell viability.
Response line: -3.34

Prompt line: Given the compound CCOC(=O)[C@H](CCc1ccccc1)N[C@H]1CS[C@H](c2cccs2)CN(CC(=O)O)C1=O [Temocapril HCl] , write its reported cell viability.
Response line: 84.8

***
Prompt line: Given the compound COc1cc2/c(=N/c3ccc(Br)cc3F)nc[nH]c2cc1OCC1CCN(C)CC1 [Vandetanib (ZD6474)] , write its reported cell viability.
Response line: 54.7

Prompt line: Given the compound C#Cc1cccc(Nc2ncnc3cc(OCCOC)c(OCCOC)cc23)c1 [Erlotinib HCl (OSI-744)] , write its reported cell viability.
Response line: 74.6

Prompt line: Given the compound `CO[C@H](C(=O)[C@@H](O)[C@@H](C)O)[C@@H]1Cc2cc3cc(O[C@H]4C[C@@H](O[C@H]5C[C@@H](O)[C@H](O)[C@@H](C)O5)[C@H](O)[C@@H](C)O4)c(C)c(O)c3c(O)c2C(=O)[C@H]1O[C@H]1C[C@@H](O[C@H]2C[C@@H](O[C@H]3C[C@](C)(O)[C@H](O)[C@@H](C)O3)[C@H](O)[C@@H](C)O2)[C@H](O)[C@@H](C)O1` , write its reported cell viability.
Response line: 7.11
